- Assay Method Text: chemical genetic growth profiling, strain panel (AID 1159580);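 note: tested at 20 µM; growth read once vehicle control cultures reached saturation at 30 °C; lower values mean less growth of the strain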
- Experimental Context: S. cerevisiae deletion strains, growth OD, locus YDR150W, strain NUM1
Among all 5,500 compounds or so, about 2,000 (36%) were called active. About 18% were inconclusive and are not listed. Cut-off read from the data, not from the text of the source: active = normalized growth mostly below about 0.91 (no sharp cut-off); inconclusive = no clear call, values can overlap the other calls; inactive = mostly above about 0.92. This is one part of the list.
Thanks in advance; please answer with one of these: TRUE = active, FALSE = inactive

Hi team, can someone confirm the assay call for CN(C)CCc1c[nH]c2ccc(CS(=O)(=O)N3CCCC3)cc12 ? FALSE

Returns: the outcome recorded for Cc1nc(N=Nc2ccc(S(=O)(=O)O)cc2S(=O)(=O)O)c(COP(=O)(O)O)c(C=O)c1O in this assay. FALSE

Each compound tested received a call. Report the one for COc1cc2c(cc1OC)[C@@H]1C(=O)c3ccc4c(c3O[C@@H]1CO2)CC(C(C)C)O4 (stereo partly drawn) . FALSE

# lookup: test call for CC(=O)OCC(=O)[C@@]1(O)CCC2C3CCC4=CC(=O)CC[C@]4(C)C3[C@@H](O)C[C@@]21C (stereo partly drawn) FALSE

Outcome logged for CN1CCN(CCC=C2c3ccccc3Sc3ccc(S(=O)(=O)N(C)C)cc32)CC1 in this assay: FALSE

Kindly provide the recorded test outcome for the following compound: COc1cccc(C(=O)N/N=C(/C)c2ccccc2O)c1 FALSE

Could you kindly confirm the outcome this assay logged for CC(C)(C)c1ccc(-c2cc(N)c(C(N)=O)s2)cc1 ? FALSE

Answer briefly: the call reported for C#C[C@]1(O)CCC2C3CCC4=Cc5oncc5C[C@]4(C)C3CC[C@@]21C (stereo partly drawn) in this assay. FALSE

Could you please tell me the result logged for O=c1c(O)c(-c2ccc(O)c(O)c2)oc2cc(O)ccc12 in this assay? FALSE

// param item: Cc1ccc(N=Cc2cccs2)cc1Cl ; yields the recorded call FALSE

What is the recorded call for this compound in the test? Cc1cccc(C(=O)c2ccccc2C(=O)O)c1 FALSE

Which outcome did this test record for the compound COc1cccc(C(=O)NCCN2CCN(c3ccc(Cl)cc3)CC2)c1 ? FALSE

For Cn1c(=O)c(-c2ccccc2)c(O)c2ccccc21 , what call appears in the results of this test? FALSE

GET /call?item= COc1cc2c(cc1OC)[C@@]13CCN4CC5=CCOC6CC(=O)N2C1[C@H]6[C@H]5C[C@H]43 (stereo partly drawn) returns the recorded outcome of this test. FALSE

Call for entry O=C(c1cccc([N+](=O)[O-])c1)c1cc2cc(Br)cc(Br)c2o1 : FALSE

Returns: the outcome recorded for COc1cc(/C=C2/N=C(c3ccccc3I)OC2=O)cc(OC)c1OC in this assay. FALSE

Just curious, what result did CC(C)C1C2CCC(C2)C1N (stereo not drawn) get here? FALSE

Dear colleague, could you share the recorded outcome for CC[C@H]1CN2CCc3cc(OC)c(OC)cc3C2C[C@@H]1CC1NCCc2cc(OC)c(OC)cc21 (stereo partly drawn) when you have a moment? FALSE

Please state the recorded outcome for this compound: C[C@]12Cc3cn4c(nc3C=C1CCC1C2CC[C@@]2(C)[C@H]1CC[C@@]2(O)C#N)nc1ccccc14 (stereo partly drawn) FALSE

# lookup: test call for COc1cccc(NC(N)=S)c1 FALSE

Dear all, I need the recorded test outcome for Nc1ncnc2c1nc(Br)n2C1OC2COP(=O)(O)O[C@@H]2C1O (stereo partly drawn) , thank you. FALSE

Check the results log: what was the call for c1cc(CN2CCCCC2)cc(OCCCNc2nc3ccccc3s2)c1 ? FALSE

Hi, sorry to bother you, what did the test record for CC1(C)S[C@@H]2[C@H](NC(=O)Cc3ccccc3)C(=O)N2[C@H]1C(=O)O ? FALSE

Give the logged outcome of this assay for the following compound: COc1cc2nc(-c3cccs3)oc(=O)c2cc1OC FALSE

Recorded call for C1CCN(CCC2CCCCN2)CC1 (stereo not drawn) ? FALSE

Which outcome was assigned to NS(=O)(=O)c1ccc(-n2ncc3ccccc3c2=O)cc1 in this test? FALSE

Could you please tell me the result logged for COc1cc(-c2oc3cc(O)ccc3c(=O)c2O)cc(OC)c1OC in this assay? FALSE

Recorded test outcome, item COC(=O)[C@]1(C)CC[C@]2(C)CC[C@]3(C)C4=CC=C5C(=CC(=O)C(O)=C5C)[C@]4(C)CC[C@@]3(C)[C@@H]2C1 TRUE

Which outcome did this test record for the compound CC1(C)C(=O)[C@@H]2C[C@@]3(O)C4=CC(=O)O[C@@H](c5ccoc5)[C@]4(C)CCC3[C@@](C)(C2=O)[C@H]1CC(=O)O (stereo partly drawn) ? FALSE

# fetch the recorded call for COc1cc(-c2coc3cc(O[C@@H]4O[C@H](CO)[C@@H](O)[C@H](O)[C@H]4O)c(OC)c(O)c3c2=O)cc(O)c1OC here FALSE

Outcome logged for N#C/C(=C\N(CCS(=O)(=O)c1ccc(Cl)cc1)Cc1cccs1)S(=O)(=O)c1ccc(Cl)cc1 in this assay: FALSE

Assay outcome for CC1(C)C(=O)[C@@H]2O[C@@H]2[C@@]2(C)C1CC(=O)[C@]1(C)C2CC[C@@]2(C)[C@H](c3ccoc3)OC(=O)[C@H]3O[C@]321 (stereo partly drawn) : what was it? FALSE

Fill in: this test's call for O=C(O)/C(=C/c1c(C(=O)O)[nH]c2cc(Cl)cc(Cl)c12)c1ccccc1 is ___ FALSE

Call for entry O/N=C\c1sccc1Oc1ccccc1 : FALSE

Hello, I am checking results. What call was entered for OCCN1CCN(CCCN2c3ccccc3Sc3ccc(C(F)(F)F)cc32)CC1 ? FALSE

Please let me know the test result on file for O=c1cc(C(F)(F)F)[nH]c2c(Cl)cccc12 . FALSE

Tell me the assay call for OC(CSc1ccccc1)CN1CCN(c2ccc(C(F)(F)F)cn2)CC1 (stereo not drawn) please. FALSE

Could you kindly confirm the outcome this assay logged for O=C(O)c1cc(=O)c2cccc(O)c2[nH]1 ? FALSE

Could you please tell me the result logged for COc1cccc(Nc2nc3ccccc3s2)c1 in this assay? FALSE

Tell me the assay call for Cc1ccc(=O)n(Cc2ccc(Cl)c(Cl)c2)n1 please. FALSE

What is the recorded call for this compound in the test? CCOC([O-])=Nc1c[n+](N2CCOCC2)no1 FALSE

Returns: the outcome recorded for COc1cc(/C=C2/SC(=S)NC2=O)cc(OC)c1OC in this assay. FALSE

For this compound, state the assay outcome: CC(=O)NO FALSE
